A collection of molecules and their measured TGI
Tested on: T-47D breast
assayRemarks: NCI tumour cell line growth inhibition, 48 h

[
  {
    "molecule": "O=C(c1ccccc1)c1c2ccccn2c2cccc[n+]12",
    "TGI": "> 100 µM"
  },
  {
    "molecule": "CC[C@@H]1/C=C/C=C/C[C@H](C)[C@@H](O)[C@](C)(O)C(=O)[C@H](C)[C@@H](O)[C@H](C)C(=O)[C@H](C)[C@@H](O)[C@H](C)/C=C/C(=O)O[C@H]2[C@@H](C)[C@@H](CC1)O[C@]1(O[C@H](CC(C)O)[C@H](C)CC1=O)[C@@H]2C (some centres not stated)",
    "TGI": "> 25 µM"
  },
  {
    "molecule": "CCOC(=O)/C(O)=C(/C=NC(=S)c1ccncc1)C(=O)OCC",
    "TGI": "> 100 µM"
  },
  {
    "molecule": "N#C/C(C(=S)Nc1ccccc1)=C1/NN=C2c3ccccc3C(=O)NN21",
    "TGI": "> 100 µM"
  },
  {
    "molecule": "Cc1ccc2nc3ccccc3c(C3C4C(=O)N(c5ccc(Br)cc5Cl)C(=O)C4ON3C(C(N)=O)c3ccccc3)c2c1 (configuration not stated)",
    "TGI": "> 25 µM"
  },
  {
    "molecule": "Cc1ccc(S(=O)(=O)OC2C3OC(C)(C)OC3OC2C(c2cc(O)c3c(c2O)C(=O)c2ccccc2C3=O)c2cc(O)c3c(c2O)C(=O)c2ccccc2C3=O)cc1 (configuration not stated)",
    "TGI": "> 10 µM"
  },
  {
    "molecule": "O=P(O)(O)CN1CCN(CP(=O)(O)O)CCN(CP(=O)(O)O)CCN(CP(=O)(O)O)CC1",
    "TGI": "> 100 µM"
  },
  {
    "molecule": "COC12C=CC(CC1)C(C)(C)C2=O (configuration not stated)",
    "TGI": "> 100 µM"
  },
  {
    "molecule": "COC(=O)C1(c2ccc(N(C)C)cc2OC)CCCN(C(=O)Oc2ccccc2[N+](=O)[O-])CCc2c1[nH]c1ccccc21 (configuration not stated)",
    "TGI": "> 100 µM"
  },
  {
    "molecule": "N#CC1=C(N2CCCC2)NC(=O)CC1=O",
    "TGI": "> 100 µM"
  },
  {
    "molecule": "CC(=O)OCC1OC(N2C(c3ccccc3)=CC(c3ccccc3)C(C#N)=C2S)C(OC(C)=O)C(OC(C)=O)C1OC(C)=O (configuration not stated)",
    "TGI": "> 24.3 µM"
  },
  {
    "molecule": "O=c1[nH]nc(-c2cccc(Br)c2)[nH]1",
    "TGI": "> 100 µM"
  }
]
